Target: EP2-Subtyp des humanen PGE2-Rezeptors (Homo sapiens, UniProt P43116)
Sequence (P43116 whole entry): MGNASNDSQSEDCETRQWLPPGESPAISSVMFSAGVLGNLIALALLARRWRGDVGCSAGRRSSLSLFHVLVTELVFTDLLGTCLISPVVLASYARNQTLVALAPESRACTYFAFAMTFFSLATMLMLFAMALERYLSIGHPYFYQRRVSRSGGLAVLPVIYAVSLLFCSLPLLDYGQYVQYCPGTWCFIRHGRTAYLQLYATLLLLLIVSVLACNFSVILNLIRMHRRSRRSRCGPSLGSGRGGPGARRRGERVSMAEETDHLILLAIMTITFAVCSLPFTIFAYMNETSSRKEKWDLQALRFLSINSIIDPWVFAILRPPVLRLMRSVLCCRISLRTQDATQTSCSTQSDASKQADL
Assay: cAMP antagonism test (HTRF cAMP detection, PGE2-stimulated cells)
Settings: cAMP Antagonismustest, in presence of agonist PGE2; read-out: Antagonismus [IC50
Description: Die Bindung von PGE2 an den EP2-Subtyp des humanen PGE2-Rezeptors induziert die Aktivierung membranständiger Adenylatzyklasen und führt zur Bildung von cAMP. […] Dabei entsteht in Abwesenheit von zellulärem cAMP ein maximales Signal, welches auf der Kopplung dieses Antikörpers an das cAMP-XL665 Molekül beruht. Dadurch entsteht nach Anregung bei 337 nm ein auf FRET (fluorescence resonance energy transfer) basierendes, langanhaltendes Emissionssignal bei 665 nm (und bei 620 nM). […]
READOUT_TYPE: pIC50
Lab note: report pIC50 as minus log10 of the concentration in molar units, number only.

Use the examples below as a reference point.
COc1ccc(C(=O)NCCc2c(C)[nH]c3c(F)cc(F)cc23)cc1OC : 6.15
Cc1[nH]c2c(F)cc(Br)cc2c1CCNC(=O)c1cc2cc(F)ccc2[nH]1 : 7.09
COc1ccc(C(=O)NCCc2c(C)[nH]c3c(F)cc(Br)c(C)c23)cc1OC : 5.74
Cc1[nH]c2c(F)c(F)ccc2c1CCNC(=O)c1cc2cc(Cl)ccc2[nH]1 : 7.15

Now consider the entry below.
pIC50 of "Cc1[nH]c2c(F)c(Cl)ccc2c1CCNC(=O)c1cc2cc(F)ccc2[nH]1" , assay on EP2-Subtyp des humanen PGE2-Rezeptors (Homo sapiens, UniProt P43116), is 6.70
